# Assay Comment: Binding in human plasma
# Measurement Parameters: 1 μM; mean ± SD, n = 3 (warfarin n = 2)
Answer each item with its documented Unbound (%), Human Plasma.
Give just the number in %; leave the unit off.

Reported Unbound (%), Human Plasma ( Cc1ccnc(Nc2nc(-c3ccc(-c4ccccn4)s3)cs2)c1 ) = 5.78

Reported Unbound (%), Human Plasma ( C(=N\Nc1ccc(-c2cnco2)cc1)/c1ccncc1 [Compound B, reference compound] ) = 2.10

Reported Unbound (%), Human Plasma ( Cc1cccc(Nc2nc(-c3ccc(-c4ccccc4)cc3)cs2)n1 ) = 4.91

Reported Unbound (%), Human Plasma ( CC(=O)CC(c1ccccc1)c1c(O)c2ccccc2oc1=O (stereo not shown) [Warfarin, warfarin, reference compound] ) = 0.68

====

# Assay Comment: Hepatic microsome stability, mouse
# Format: in vitro ADME
# Measurement Parameters: mouse liver microsomes

- Structure As Smiles: "Cc1ccc(Nc2nc(-c3cc(-c4ccccc4)no3)cs2)nc1"
  hepatic extraction ratio (ER): "lower to moderate"
- Structure As Smiles: "Cc1ccnc(Nc2nc(-c3ccncc3)cs2)c1"
  hepatic extraction ratio (ER): "higher"
- Structure As Smiles: "c1ccc2cc(Nc3nc(-c4ccncc4)cs3)ncc2c1"
  hepatic extraction ratio (ER): "higher"
- Structure As Smiles: "COc1ccc(-c2csc(Nc3ccc4ccccc4n3)n2)cc1OC"
  hepatic extraction ratio (ER): "lower to moderate"

====

# Measurement Parameters: pH 2 (HCl) buffer
Readout Kind: solubility at pH 2.0 (in words)

- Structure As Smiles: "Cc1ccc(Nc2nc(-c3cc(-c4ccccc4)no3)cs2)nc1"
  solubility at pH 2.0 (in words): "lower"
- Structure As Smiles: "Cc1cccc(Nc2nc(-c3cc4ccccc4o3)cs2)n1"
  solubility at pH 2.0 (in words): "higher solubility"
- Structure As Smiles: "COc1ccc(-c2csc(Nc3cc4ccccc4cn3)n2)cc1OC"
  solubility at pH 2.0 (in words): "lower solubility"
- Structure As Smiles: "COc1ccc(Nc2nc(-c3ccc(OC)c(OC)c3)cs2)nc1"
  solubility at pH 2.0 (in words): "lower solubility"
- Structure As Smiles: "Cc1ccnc(Nc2nc(-c3ccc(-c4ccccn4)s3)cs2)c1"
  solubility at pH 2.0 (in words): "higher solubility"
- Structure As Smiles: "c1ccc2cc(Nc3nc(-c4ccncc4)cs3)ncc2c1"
  solubility at pH 2.0 (in words): "higher solubility"

Shifting focus to the molecule that follows.
Reported solubility at pH 2.0 (in words) ( COc1ccc(-c2csc(Nc3ccc4ccccc4n3)n2)cc1OC ) = lower solubility

====

# Assay Comment: in vitro
# Measurement Parameters: dog, MDCK-MDR1
Readout Kind: Papp B→A
A complete answer gives the number and then names the unit.

Reported Papp B→A ( Cc1cccc(Nc2nc(-c3cc4ccccc4o3)cs2)n1 ) = 8.4 ×10⁻⁶ cm/s

Reported Papp B→A ( COc1ccc(-c2csc(Nc3ccc4ccccc4n3)n2)cc1OC ) = 8.9 ×10⁻⁶ cm/s

Reported Papp B→A ( Cc1ccc(Nc2nc(-c3cc(-c4ccccc4)no3)cs2)nc1 ) = 8.3 ×10⁻⁶ cm/s

Reported Papp B→A ( Cc1ccnc(Nc2nc(-c3ccc(-c4ccccn4)s3)cs2)c1 ) = 20.9 ×10⁻⁶ cm/s

Reported Papp B→A ( c1ccc2cc(Nc3nc(-c4ccncc4)cs3)ncc2c1 ) = 4.44 ×10⁻⁶ cm/s

Reported Papp B→A ( Cc1ccnc(Nc2nc(-c3ccncc3)cs2)c1 ) = 48.7 ×10⁻⁶ cm/s
